target: UDP-3-O-acyl-N-acetylglucosamine deacetylase (Pseudomonas aeruginosa (strain ATCC 15692 / PAO1 / 1C / PRS 101 / LMG12228), UniProt P47205); experiment: Binding affinity to Pseudomonas aeruginosa PAO1 NB52019 LpxC after 60 to 420 secs by SPR method
Sequence (P47205 whole entry): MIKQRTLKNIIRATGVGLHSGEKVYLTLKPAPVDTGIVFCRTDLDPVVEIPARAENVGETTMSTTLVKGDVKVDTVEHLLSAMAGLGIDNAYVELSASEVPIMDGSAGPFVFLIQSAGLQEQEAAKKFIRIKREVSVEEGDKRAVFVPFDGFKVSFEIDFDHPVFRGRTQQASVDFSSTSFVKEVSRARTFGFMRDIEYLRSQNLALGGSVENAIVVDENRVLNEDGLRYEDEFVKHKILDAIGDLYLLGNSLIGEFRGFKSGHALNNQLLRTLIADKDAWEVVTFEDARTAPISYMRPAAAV
OUTCOME MEASURE: pKd
Value format note: pKd is -log10 of concentration (mol/L); just state the number.

Reported pKd of `C/C=C/c1ccc(N2C[C@H](C[C@](C)(C(=O)NO)S(C)(=O)=O)OC2=O)cc1` : 10.00

Reported pKd of `CCCc1ccc(N2C[C@H](C[C@](C)(C(=O)NO)S(C)(=O)=O)OC2=O)cc1` : 9.77

Reported pKd of `C[C@@](C[C@H]1CN(c2ccc(C3CC3)cc2)C(=O)O1)(C(=O)NO)S(C)(=O)=O` : 9.92

Reported pKd of `C[C@@](C[C@H]1CC(c2ccc(C#CC3CC3)cc2)=NO1)(C(=O)NO)S(C)(=O)=O` : 9.77

Reported pKd of `CC#Cc1ccc(C2=NO[C@@H](C[C@](C)(C(=O)NO)S(C)(=O)=O)C2)cc1` : 9.36

Reported pKd of `C/C=C/c1ccc(C2=NO[C@@H](C[C@](C)(C(=O)NO)S(C)(=O)=O)C2)cc1` : 9.52

Reported pKd of `C[C@@](C[C@H]1CN(c2ccc(Br)cc2)C(=O)O1)(C(=O)NO)S(C)(=O)=O` : 9.68

Reported pKd of `C[C@@](C[C@H]1CN(c2ccc(-c3ccccc3)cn2)C(=O)O1)(C(=O)NO)S(C)(=O)=O` : 9.92

Reported pKd of `CC(C)(O)[C@H]1C[C@H](C#Cc2ccc(N3C[C@H](C[C@](C)(C(=O)NO)S(C)(=O)=O)OC3=O)cc2)C1` : 9.70

====

experiment: Volume of distribution at steady state in mouse at 60 mg/kg, iv; assay type: ADME, organism-based; conditions: in vivo, read-out: Vdss
OUTCOME MEASURE: Vd (L/kg)
# unit: L/kg | format: bare number

Reported Vd of `C[C@@](C[C@H]1CN(c2ccc(C#CC3CC3)cc2)C(=O)O1)(C(=O)NO)S(C)(=O)=O` : 1.6

====

experiment: Clearance in dog at 10 mg/kg, iv; type: ADME, organism-based, Canis lupus familiaris; settings: in vivo
OUTCOME MEASURE: clearance

Reported clearance of `C[C@@](C[C@H]1CN(c2ccc(C#CC3CC3)cc2)C(=O)O1)(C(=O)NO)S(C)(=O)=O` : 26 mL/min/kg

====

test: Volume of distribution at steady state in rat at 5 mg/kg, iv; assay type: ADME, organism-based; settings: in vivo, read-out: Vdss
OUTCOME MEASURE: Vd (L/kg)
# unit: L/kg | format: bare number

Reported Vd of `C[C@@](C[C@H]1CN(c2ccc(C#CC3CC3)cc2)C(=O)O1)(C(=O)NO)S(C)(=O)=O` : 1

====

Would you mind telling me the reported fold change (FC) of each entry?
system: Klebsiella pneumoniae; assay: Inhibition of LpxC in Klebsiella pneumoniae ATCC 43816 assessed as potentiation factor by measuring ratio of MIC of compound alone to MIC of compound in presence of vancomycin after 20 hrs by CLSI protocol-based microdilution assay

Reported fold change (FC) of `C[C@@](C[C@H]1CC(c2ccc(C#CC3CC3)cc2)=NO1)(C(=O)NO)S(C)(=O)=O` : 4

Reported fold change (FC) of `CC(C)(O)[C@H]1C[C@H](C#Cc2ccc(N3C[C@H](C[C@](C)(C(=O)NO)S(C)(=O)=O)OC3=O)cc2)C1` : 1

Reported fold change (FC) of `CC#Cc1ccc(C2=NO[C@@H](C[C@](C)(C(=O)NO)S(C)(=O)=O)C2)cc1` : 4

Reported fold change (FC) of `CC#Cc1ccc(N2C[C@H](C[C@](C)(C(=O)NO)S(C)(=O)=O)OC2=O)cc1` : 4

Reported fold change (FC) of `CCCc1ccc(N2C[C@H](C[C@](C)(C(=O)NO)S(C)(=O)=O)OC2=O)cc1` : 4
